Listed below: Isocratic point (%) values for each entry.
assay: Isocratic point, elution from C18 prep-scale column; type: physicochemical; settings: elution from C18 column
Bridge positions count the residues as written; N and C are the ends. Square brackets hold non-standard residues; d marks the D form. Triazole bridges read from a SMILES are 1,4-linked. Peptide text beside a SMILES is read from it. * marks the point of attachment. Biotin = O=C1N[C@H]2[C@H](CS[C@H]2CCCCC(=O)*)N1; PEG10 = NCCOCCOCCOCCOCCOCCOCCOCCOCCOCCOCCC(=O)O; Lys(N3) = [N-]=[N+]=NCCCC[C@H](N)C(=O)O; PEG5 = NCCOCCOCCOCCOCCOCCC(=O)O; Pra = C#CC[C@H](N)C(=O)O
measured-parameter: Isocratic point (%)

compound | reported-result
CC(C)C[C@@H]1NC(=O)[C@H](C)NC(=O)[C@@H](NC(=O)CCOCCOCCOCCOCCOCCOCCOCCOCCOCCOCCNC(=O)CCCC[C@@H]2SC[C@@H]3NC(=O)N[C@@H]32)Cc2cn(nn2)CCCC[C@@H](C(N)=O)NC(=O)[C@H](Cc2ccccc2)NC(=O)[C@H](Cc2ccccc2)NC(=O)[C@H](Cc2ccccc2)NC1=O [compound 2] ({Biotin-PEG10}-[Pra]ALFFF[Lys(N3)]-NH2; triazole 1-7) | 65.55
C[C@@H](O)[C@@H]1NC(=O)[C@@H](NC(=O)CCOCCOCCOCCOCCOCCNC(=O)CCCC[C@@H]2SC[C@@H]3NC(=O)N[C@@H]32)Cc2cn(nn2)CCCC[C@@H](C(N)=O)NC(=O)[C@H](Cc2ccccc2)NC(=O)[C@H](Cc2ccccc2)NC(=O)[C@H](Cc2ccccc2)NC(=O)[C@H]([C@@H](C)O)NC1=O [compound 13] ({Biotin-PEG5}-[Pra]TTFFF[Lys(N3)]-NH2; triazole 1-7) | 53.40
CC(C)C[C@@H]1NC(=O)[C@@H](NC(=O)CCOCCOCCOCCOCCOCCOCCOCCOCCOCCOCCNC(=O)CCCC[C@@H]2SC[C@@H]3NC(=O)N[C@@H]32)Cc2cn(nn2)CCCC[C@@H](C(N)=O)NC(=O)[C@H](Cc2ccccc2)NC(=O)[C@H](Cc2ccccc2)NC(=O)[C@H](Cc2ccccc2)NC(=O)[C@H](C)NC1=O [compound 3] ({Biotin-PEG10}-[Pra]LAFFF[Lys(N3)]-NH2; triazole 1-7) | 66.00

###

assay: Isocratic point, elution from C18 prep-scale column; assay type: physicochemical; details: elution from C18 column
Bridge positions count the residues as written; N and C are the ends. Square brackets hold non-standard residues; d marks the D form. Triazole bridges read from a SMILES are 1,4-linked. Peptide text beside a SMILES is read from it. * marks the point of attachment. Biotin = O=C1N[C@H]2[C@H](CS[C@H]2CCCCC(=O)*)N1; PEG10 = NCCOCCOCCOCCOCCOCCOCCOCCOCCOCCOCCC(=O)O; Lys(N3) = [N-]=[N+]=NCCCC[C@H](N)C(=O)O; Phe(4-F) = N[C@@H](Cc1ccc(F)cc1)C(=O)O; Pra = C#CC[C@H](N)C(=O)O
Parameter: Isocratic point (%). Scope: all listed entries.
measured-parameter: Isocratic point (%)

compound | measured-parameter | uom | reported-result
CC(C)C[C@@H]1NC(=O)[C@@H](NC(=O)CCOCCOCCOCCOCCOCCOCCOCCOCCOCCOCCNC(=O)CCCC[C@@H]2SC[C@@H]3NC(=O)N[C@@H]32)Cc2cn(nn2)CCCC[C@@H](C(N)=O)NC(=O)[C@H](Cc2ccc(F)cc2)NC(=O)[C@H](Cc2ccccc2)NC(=O)[C@H](Cc2ccccc2)NC(=O)[C@H](CC(C)C)NC1=O [compound 11] ({Biotin-PEG10}-[Pra]LLFF[Phe(4-F)][Lys(N3)]-NH2; triazole 1-7) | Isocratic point (%) | % | 75.53
CC(C)C[C@@H]1NC(=O)[C@@H](NC(=O)CCOCCOCCOCCOCCOCCOCCOCCOCCOCCOCCNC(=O)CCCC[C@@H]2SC[C@@H]3NC(=O)N[C@@H]32)Cc2cn(nn2)CCCC[C@@H](C(N)=O)NC(=O)[C@H](Cc2ccccc2)NC(=O)[C@H](C)NC(=O)[C@H](Cc2ccccc2)NC(=O)[C@H](CC(C)C)NC1=O [compound 5] ({Biotin-PEG10}-[Pra]LLFAF[Lys(N3)]-NH2; triazole 1-7) | Isocratic point (%) | % | 66.00
